# measured.target: T1, human HVEM-Fc protein (human, UniProt Q92956 39-202, limits assumed)
# T1 construct: not shown: Fc
# T1 sequence (looked up): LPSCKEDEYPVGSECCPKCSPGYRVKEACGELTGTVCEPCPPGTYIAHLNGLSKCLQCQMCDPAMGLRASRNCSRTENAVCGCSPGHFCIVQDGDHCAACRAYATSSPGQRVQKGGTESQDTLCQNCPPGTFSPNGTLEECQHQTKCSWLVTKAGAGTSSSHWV
# measurement.description: ELISA, coated human HVEM-hFc 0.2 ug/ml, anti-human IgG4-HRP, SigmaPlot fit
In this section, each of the binders is paired with its reported binding affinity (ELISA fit).
Respond with the bare value in pM.

• HVEM011 (antibody, human IgG4 S228P, kappa, V domains shown, Full-size human IgG4 (S228P) kappa antibody made in ExpiCHO-S; human IL-2 signal peptide is cleaved and left out; also called HVEM011 antibody) VH: EVQLLESGGGLVQPGGSLRLSCAASEFTFSSYAMHWVRQAPGKGLEWVSSITSASSYIDYADSVKGRFTISRDNSKNTLYLQMNSLRAEDTAVYYCARGTRGLFDHWGQGTLVTVSS VL: EIVLTQSPGTLSLSPGERATLSCRASRSVGKYLAWYQQKPGQAPRLLIYLGSNRASGIPDRFSGSGSGTDFTLTISRLEPEDFAVYYCQQYGSSPPITFGQGTKVEIKR = 23.4

Recorded result, HVEM040 (antibody, human IgG4 S228P, kappa, V domains shown) VH: EVQLLESGGGLVQPGGSLRLSCAASGFTFSNYGMSWVRQAPGKGLEWVSSIYYSGDTYYNPSLESRFTISRDNSKNTLYLQMNSLRAEDTAVYYCASGSNAFDIWGQGTLVTVSS VL: EIVLTQSPGTLSLSPGERATLSCRASRSVGKYLAWYQQKPGQAPRLLIYGASSRTTGIPDRFSGSGSGTDFTLTISRLEPEDFAVYYCQQYGSSPPVTFGQGTKVEIKR , binding affinity (ELISA fit): 20

HVEM018 (antibody, human IgG4 S228P, kappa, V domains shown) VH: EVQLLESGGGLVQPGGSLRLSCAASGFTFSSYSMNWVRQAPGKGLEWVSAISGSGGGTYSADSVKGRFTISRDNSKNTLYLQMNSLRAEDTAVYYCARGKAYGYFDYWGQGTLVTVSS VL: EIVLTQSPGTLSLSPGERATLSCRASRSVGKYLAWYQQKPGQAPRLLIYAASTLQSGIPDRFSGSGSGTDFTLTISRLEPEDFAVYYCQQYGSSPPVIFGQGTKVEIKR yielded binding affinity (ELISA fit) of 25.9

Value of measured binding affinity (ELISA fit) for the entry HVEM017 (antibody, human IgG4 S228P, kappa, V domains shown, also called HVEM0017) VH: EVQLLESGGGLVQPGGSLRLSCAASGFTFSTNYMSWVRQAPGKGLEWVSLISYSGSNKYYADSVKGRFTISHDNSKNTLYLQMNSLRAEDTAVYYCARGRGNTISGTFDLWGQGTLVTVSS VL: EIVLTQSPGTLSLSPGERATLSCRASRSVGKYLAWYQQKPGQAPRLLIYSASTLSSGIPDRFSGSGSGTDFTLTISRLEPEDFAVYYCQQYGSSPPITFGQGTKVEIKR : 21.5
